Reference source for all entries: ChEMBL document CHEMBL2202954

Measured Activity, listed per entry.
- System: CCRF-CEM
- PROCEDURE TEXT: Cytotoxicity against human CCRF-CEM cells assessed as cellular growth at 10 uM by SRB assay
- Assay type: functional
Number only, in %; omit the unit.

See these solved cases before continuing.
smiles_text=N#Cc1ccc(-n2nnc3ccccc32)cc1C#N value_unit=% assay_value=93.15
smiles_text=O=c1/c(=C/c2ccccc2)sc2nc(-c3ccc(Cl)cc3Cl)nn12 value_unit=% assay_value=105.93
smiles_text=O=C(NCc1cccnc1)c1sc2cc([N+](=O)[O-])ccc2c1Cl value_unit=% assay_value=100.08
smiles_text=CC1(C)CC(=O)c2cc3c(N)c(C(=O)Nc4ccc(F)cc4)sc3nc2C1 value_unit=% assay_value=107.91
smiles_text=Cc1ccc2c(c1)N/C(=C/C(=O)c1ccc(Cl)cc1)C(=O)O2 value_unit=% assay_value=65.56

Attention now turns to another entry.
Exercise: What value of Activity has been recorded for this entry: Cc1cc(C)c(NC(=O)c2sc3nc4c(cc3c2N)C(=O)CC(C)(C)C4)c(C)c1
Solution: 90.08
